Test system: CD69 expression on B cells in human whole blood
testDescription: Whole Blood Assay of BCR-Stimulated CD69 Expression on B Cells
Assay type: cell-based
assayConditions: B-cell
assayReadout: IC50 (nM)
Numbers only, in nM.

# map each compound to its IC50
1. Cc1c(-c2c(Cl)cc(C(N)=O)c3[nH]c4cc(C(C)(C)O)ccc4c23)cccc1-n1c(=O)c2cccc(C)c2n(C)c1=O
2. Cc1c(-c2c(F)cc(C(N)=O)c3[nH]c4cc(CCO)ccc4c23)cccc1-n1c(=O)cc2c(F)cccn2c1=O

Found:
180
66

Provide the reported IC50 of each entry below, same order.
1. Cc1c(-c2c(Cl)cc(C(N)=O)c3[nH]c4cc(C(C)(C)O)ccc4c23)cccc1-n1c(=O)c2ccccc2n(C)c1=O
2. Cc1c(-c2c(Cl)cc(C(N)=O)c3[nH]c4cc(C(C)(C)O)ccc4c23)cccc1-n1c(=O)[nH]c2c(F)cc(F)cc2c1=O (racemic) [Example 10]
3. Cc1c(-c2c(F)cc(C(N)=O)c3[nH]c4c(c23)CC[C@H](C(C)(C)O)C4)cccc1-n1c(=O)[nH]c2c(F)cccc2c1=O (single isomer, unassigned)
4. Cc1c(-c2c(F)cc(C(N)=O)c3[nH]c4c(c23)CC[C@H](C(C)(C)O)C4)cccc1-n1c(=O)[nH]c2c(Cl)cccc2c1=O (single isomer, unassigned)
5. Cc1c(-c2c(Cl)cc(C(N)=O)c3[nH]c4cc(C(C)(C)O)ccc4c23)cccc1-n1c(=O)c2cc(F)ccc2n(C)c1=O
6. Cc1cc(C(N)=O)c2[nH]c3cc(C(C)(C)O)ccc3c2c1-c1cccc(-n2c(=O)[nH]c3c(F)cccc3c2=O)c1C (single isomer, unassigned)
7. Cc1c(-c2c(C#N)cc(C(N)=O)c3[nH]c4cc(C(C)(C)O)ccc4c23)cccc1-n1c(=O)cc2c(Cl)cccn2c1=O (single isomer, unassigned)
8. Cc1c(-c2c(F)cc(C(N)=O)c3[nH]c4cc(C(C)(C)O)ccc4c23)cccc1-n1c(=O)[nH]c2c(F)cc(F)cc2c1=O

Found:
1: 130; 2: 110; 3: 260; 4: 190; 5: 75; 6: 89; 7: 200; 8: 17

Okay, here is my list. What is IC50 for each of these?
1. Cc1c(-c2c(F)cc(C(N)=O)c3[nH]c4c(c23)CC[C@H](C(C)(C)O)C4)cccc1-n1c(=O)cc2c(F)cccn2c1=O (single isomer, unassigned)
2. Cn1c(=O)n(-c2cccc(-c3c(F)cc(C(N)=O)c4[nH]c5cc(C(C)(C)O)ccc5c34)c2Cl)c(=O)c2cccc(F)c21

Found:
1. 75
2. 88
